Listed here: compounds with reported pIC50 for hMCH-1R (Homo sapiens (Human)).
Lab note — pIC50 values are minus log10 of concentrations in M.

Incoming: Endpoint output: pIC50 of Cc1cc(CN2CCC(O)CC2)ccc1C(=O)Cn1ncc(OCc2ccc(Br)cn2)cc1=O . Value?
Outgoing: 7.74

Incoming: Let us now turn to Cc1cc(CN2CCCCC2)ccc1C(=O)Cn1ccc(OCc2ccc(Cl)cn2)cc1=O
Outgoing: 7.59

Incoming: Let us now turn to Cc1cc(CN2CC[C@H](O)C2)ccc1C(=O)Cn1ccc(OCc2ccccc2)cc1=O
Outgoing: 7.52

Incoming: Let us now turn to CCNCc1ccc(C(=O)Cn2ccc(OCc3ccc(OC)cn3)cc2=O)c(C)c1
Outgoing: 7.27

Incoming: Let us now turn to Cc1cc(CN(C)C)ccc1C(=O)Cn1ccc(OCc2ccc(F)cn2)cc1=O
Outgoing: 7.15

Incoming: Let us now turn to CNCc1ccc(C(=O)Cn2ccc(OCc3ccccc3)cc2=O)c(C)c1
Outgoing: 7.72

Incoming: Let us now turn to COc1ccc(COc2cnn(CC(=O)c3ccc(C(C)N(C)C)cc3C)c(=O)c2)nc1 (stereo not shown)
Outgoing: 7.70

Incoming: Let us now turn to Cc1cc(CN2CC[C@@H](O)C2)ccc1C(=O)Cn1ncc(OCc2ccc(Br)cn2)cc1=O
Outgoing: 7.66

Incoming: Let us now turn to Cc1cc(CN2CCC(CO)CC2)ccc1C(=O)Cn1ccc(OCc2ccc(Cl)cn2)cc1=O
Outgoing: 7.47

Incoming: Let us now turn to CNCc1ccc(C(=O)Cn2ccc(OCc3ccc(Cl)cn3)cc2=O)c(C)c1
Outgoing: 7.43

Incoming: Let us now turn to CCNCc1ccc(C(=O)Cn2ncc(OCc3ccccc3)cc2=O)c(C)c1
Outgoing: 8.00

Incoming: Let us now turn to CCNCc1ccc(C(=O)Cn2ncc(OCc3ccc(F)cn3)cc2=O)c(C)c1
Outgoing: 7.23

Incoming: Let us now turn to CNCc1ccc(C(=O)Cn2ncc(OCc3ccc(Cl)cn3)cc2=O)c(C)c1
Outgoing: 7.55

Incoming: Let us now turn to Cc1cc(CN(C)C)ccc1C(=O)Cn1ncc(OCc2ccc(F)cn2)cc1=O
Outgoing: 7.30

Incoming: Let us now turn to CCNCc1ccc(C(=O)Cn2ncc(OCc3ccc(Cl)cn3)cc2=O)c(C)c1
Outgoing: 7.74

Incoming: Let us now turn to Cc1cc(CN2CCCCC2)ccc1C(=O)Cn1ncc(OCc2ccc(Cl)cn2)cc1=O
Outgoing: 7.80

Incoming: Let us now turn to Cc1cc(CN2CCC[C@H]2CO)ccc1C(=O)Cn1ncc(OCc2ccccc2)cc1=O
Outgoing: 7.96

Incoming: Let us now turn to Cc1cc(CN2CCC[C@H]2CO)ccc1C(=O)Cn1ncc(OCc2ccc(Cl)cn2)cc1=O
Outgoing: 7.59

Incoming: Let us now turn to Cc1cc(CN2CCNCC2)ccc1C(=O)Cn1ncc(OCc2ccc(Cl)cn2)cc1=O
Outgoing: 7.08

Incoming: Let us now turn to Cc1cc(CN2CCC[C@H]2CO)ccc1C(=O)Cn1ccc(OCc2ccc(Br)cn2)cc1=O
Outgoing: 7.89

Incoming: Let us now turn to Cc1cc(CN2CCOCC2)ccc1C(=O)Cn1ccc(OCc2ccc(Br)cn2)cc1=O
Outgoing: 7.23

Incoming: Let us now turn to Cc1cc(CN(C)C)ccc1C(=O)Cn1ccc(OCc2ccc(Br)cn2)cc1=O
Outgoing: 7.77

Incoming: Let us now turn to Cc1cc(CN2CCN(C)CC2)ccc1C(=O)Cn1ccc(OCc2ccc(Br)cn2)cc1=O
Outgoing: 7.14

Incoming: Let us now turn to Cc1cc(CN2CCN(C)CC2)ccc1C(=O)Cn1ccc(OCc2ccc(Cl)cn2)cc1=O
Outgoing: 7.08

Incoming: Let us now turn to Cc1cc(CN2CCCCC2)ccc1C(=O)Cn1ncc(OCc2ccc(F)cn2)cc1=O
Outgoing: 7.46
